Where these numbers come from: PubChem BioAssay (NCI)

Test system: HT29 colon
METHOD: NCI tumour cell line growth inhibition, 48 h; in the data active means GI50 below about 0.43 µM; inactive means the rest
Labels: label 1 = active, label 0 = inactive

# COMPOUND, TARGET OR TEST SYSTEM, LABEL CLASS
data = [
    ("NC(=O)c1ccc2c(-c3ccnc(NCCCO)n3)c(-c3ccc(F)cc3)nn2c1", "HT29 colon", "label 0"),
    ("COc1ccc(CNc2c3ccccc3nc3ccc(OC)cc23)cc1", "HT29 colon", "label 0"),
    ("C[C@@H]1N=C(c2ccc(Br)cc2)Nc2nc3ccccn3c2C1=O", "HT29 colon", "label 0"),
    ("COc1ccc(-c2ccc(/C=N/n3c(COc4ccc(Cl)cc4Cl)nn(CN4CCN(C)CC4)c3=S)o2)c([N+](=O)[O-])c1", "HT29 colon", "label 0"),
    ("CC/C(=C(/CC)c1ccc(O)cc1)c1ccc([O-])cc1.CC/C(=C(/CC)c1ccc(O)cc1)c1ccc([O-])cc1.O=C([CH-]C(=O)c1ccccc1)c1ccccc1.O=C([CH-]C(=O)c1ccccc1)c1ccccc1.[Ti+4]", "HT29 colon", "label 0"),
    ("CC[Si](CC)(CC)OC[C@]1([C@@H]2COC(C)(C)O2)CC=CC(=O)O1", "HT29 colon", "label 0"),
    ("NC1CCCCC1N.O=S(=O)([O-])CCCN1CCOCC1.O=S(=O)([O-])CCCN1CCOCC1.[Pt+4]", "HT29 colon", "label 0"),
    ("O=C(CC12CC3CC(CC(C3)C1)C2)NCCOCCOCCOCCNC(=O)c1cc2c(o1)C(=O)c1ccccc1C2=O", "HT29 colon", "label 0"),
    ("C=CCN(CC=C)C(=O)c1cc(C)nc2c1c(=O)n(-c1ccccc1)c(=O)n2CC(O)CN1CCN(c2ncccn2)CC1 (stereo not given)", "HT29 colon", "label 0"),
    ("COc1ccc(C2=C(c3ccc(OC)c(OC)c3)C(=O)OC2)cc1", "HT29 colon", "label 1"),
]
